# SYSTEM NAME: human adenosine A2A receptor (Homo sapiens, UniProt P29274)
# Sequence (P29274 whole entry): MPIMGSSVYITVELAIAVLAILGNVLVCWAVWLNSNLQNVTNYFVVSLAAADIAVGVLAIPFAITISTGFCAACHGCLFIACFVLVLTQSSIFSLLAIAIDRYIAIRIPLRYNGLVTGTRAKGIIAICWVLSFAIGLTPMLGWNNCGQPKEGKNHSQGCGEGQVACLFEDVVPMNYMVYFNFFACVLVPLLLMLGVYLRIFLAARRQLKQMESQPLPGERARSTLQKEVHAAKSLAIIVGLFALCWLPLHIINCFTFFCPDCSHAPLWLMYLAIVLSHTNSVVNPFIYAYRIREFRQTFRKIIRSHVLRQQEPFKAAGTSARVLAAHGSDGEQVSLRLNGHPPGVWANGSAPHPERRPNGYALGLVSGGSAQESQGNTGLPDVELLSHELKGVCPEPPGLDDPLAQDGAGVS
# ASSAY COMMENT: Adenosine A2A Receptor Functional Assay (A2AGAL2)
# PARTICULARS: CHO-K1 cells overexpressing human A2A receptor, cAMP inducible beta-galactosidase reporter; antagonist mode vs 15 nM NECA challenge
Provide the reported pIC50 of each item.
Hey, just a heads up that pIC50 is the negative log base 10 of the concentration in molar.

Data request: Report the value of pIC50 obtained on human adenosine A2A receptor (Homo sapiens, UniProt P29274) for CCOC(=O)Cn1cc(-c2cccc3c2-c2nc(N)nc(-c4ccc(F)cc4)c2C3=O)cn1 .
Data returned: 8.38

Data request: Lab note: human adenosine A2A receptor (Homo sapiens, UniProt P29274) assay, enter pIC50 for Nc1nc(-c2ccc(F)cc2)c2c(n1)-c1c(cccc1-c1cnn(CCN3CCOCC3)c1)C2=O here
Data returned: 7.90

Data request: Enter pIC50 (test system human adenosine A2A receptor (Homo sapiens, UniProt P29274)) for Cc1c(-c2cccc3c2-c2nc(N)nc(-c4ccccc4)c2C3=O)cnn1-c1ccccc1
Data returned: 7.77

Data request: State the measured pIC50 (human adenosine A2A receptor (Homo sapiens, UniProt P29274)) of N#Cc1ccc(-c2cccc3c2-c2nc(N)nc(-c4ccccc4)c2C3=O)s1
Data returned: 8.89

Data request: Look up human adenosine A2A receptor (Homo sapiens, UniProt P29274) data: pIC50 of Cc1cc(-c2cccc3c2-c2nc(N)nc(-c4ccccc4)c2C3=O)cnc1N1CCN(C)CC1 , then report it.
Data returned: 8.52

Data request: Tell me its pIC50 on human adenosine A2A receptor (Homo sapiens, UniProt P29274): Nc1nc(-c2ccc(F)cc2)c2c(n1)-c1c(cccc1-c1ccc(N3CCN(CC4CC4)CC3)nc1)C2=O
Data returned: 8.10

Data request: Report the value of pIC50 obtained on human adenosine A2A receptor (Homo sapiens, UniProt P29274) for Nc1nc(-c2ccccc2)c2c(n1)-c1c(cccc1-c1ccc(N3CCN(Cc4ccccc4)CC3)nc1)C2=O .
Data returned: 8.25

Data request: Give pIC50 for this entry on human adenosine A2A receptor (Homo sapiens, UniProt P29274): Cc1nc(-c2ccccc2)sc1-c1cccc2c1-c1nc(N)nc(-c3ccccc3)c1C2=O
Data returned: 8.15

Data request: Answer with pIC50 of Cc1nc(-c2ccc(C(F)(F)F)cc2)sc1-c1cccc2c1-c1nc(N)nc(-c3ccc(F)cc3)c1C2=O measured for human adenosine A2A receptor (Homo sapiens, UniProt P29274).
Data returned: 7.30

Data request: Lab note: record pIC50 of Cc1nc(-c2ccccc2)sc1-c1cccc2c1-c1nc(N)nc(-c3ccc(F)cc3)c1C2=O tested on human adenosine A2A receptor (Homo sapiens, UniProt P29274).
Data returned: 7.77

Data request: // fetch pIC50; item: CC(C)CCN1CCN(c2ccc(-c3cccc4c3-c3nc(N)nc(-c5ccc(F)cc5)c3C4=O)cn2)CC1 ; system: human adenosine A2A receptor (Homo sapiens, UniProt P29274)
Data returned: 7.74

###

# SYSTEM NAME: human adenosine A1 receptor (Homo sapiens, UniProt P30542)
# Sequence (P30542 whole entry): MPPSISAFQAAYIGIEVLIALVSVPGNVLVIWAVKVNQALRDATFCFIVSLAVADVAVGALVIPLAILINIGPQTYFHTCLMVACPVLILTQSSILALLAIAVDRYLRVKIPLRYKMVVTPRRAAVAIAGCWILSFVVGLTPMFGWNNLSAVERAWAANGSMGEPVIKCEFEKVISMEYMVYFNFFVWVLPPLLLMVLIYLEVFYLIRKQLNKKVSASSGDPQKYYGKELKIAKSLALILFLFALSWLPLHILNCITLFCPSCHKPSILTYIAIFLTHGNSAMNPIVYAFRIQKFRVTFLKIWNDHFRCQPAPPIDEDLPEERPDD
# ASSAY COMMENT: Adenosine A1 Receptor Functional Assay (A1GAL2)
# PARTICULARS: CHO-K1 cells overexpressing human A1 receptor, cAMP inducible beta-galactosidase reporter; antagonist mode vs 4 nM r-PIA/1 uM Forskolin challenge
Would you mind telling me the reported IC50 of each entry?
Reply with just the number (in µM).

Data request: Identify measured IC50 corresponding to CCOC(=O)Cn1cc(-c2cccc3c2-c2nc(N)nc(-c4ccc(F)cc4)c2C3=O)cn1
Data returned: 0.225

Data request: Dear colleague, please send me the reported IC50 for Cc1c(-c2cccc3c2-c2nc(N)nc(-c4ccccc4)c2C3=O)cnn1-c1ccccc1 when you can.
Data returned: 0.87

Data request: Using the record for Cc1nc(-c2ccccc2)sc1-c1cccc2c1-c1nc(N)nc(-c3ccc(F)cc3)c1C2=O , state its measured IC50.
Data returned: 0.92

Data request: Give the reported IC50 for this compound. Nc1nc(-c2ccccc2)c2c(n1)-c1c(cccc1-c1ccc(N3CCN(Cc4ccccc4)CC3)nc1)C2=O
Data returned: 0.56

Data request: State, in one line, measured IC50 of Nc1nc(-c2ccc(F)cc2)c2c(n1)-c1c(cccc1-c1cnn(CCN3CCOCC3)c1)C2=O
Data returned: 2.03

Data request: Complete the entry with IC50 for Cc1nc(-c2ccc(C(F)(F)F)cc2)sc1-c1cccc2c1-c1nc(N)nc(-c3ccc(F)cc3)c1C2=O
Data returned: 5.4

Data request: Consider the compound N#Cc1ccc(-c2cccc3c2-c2nc(N)nc(-c4ccccc4)c2C3=O)s1 . State its measured IC50.
Data returned: 0.12

Source of measurements: patent US20110105494A1
